Experiment: Amount of fragrance ingredients retained on paper blotter after evaporation (ethanol extraction, GC-MS)
Type: physicochemical
Run Parameters: Table 6; fragrance TAK in C4; 240 min; 32°C
Endpoint Name: amount of fragrance ingredient retained on blotter (percentage of the initial amount)

Consider the reported amount of fragrance ingredient retained on blotter (percentage of the initial amount) for these compounds:
- CC(=O)OC1CCCCC1C(C)(C)C (centres unmarked) [Verdox™, (2-tert-butylcyclohexyl) acetate]: 18%
- CC/C=C\CCOC(=O)c1ccccc1O [Cis 3-hexenyl salicylate, Cis-3-hexenyl salicylate]: 94%
- CCCCCCOC(C)=O [Hexyl acetate, Hexyl Acetate]: 4%
- C=CC(C)(O)CCC=C(C)C (centres unmarked) [Linalool]: 13%
- CC(C=O)Cc1ccc(C(C)(C)C)cc1 (centres unmarked) [Lilial™, 3-(4-tert-Butylphenyl)-2-methylpropanal]: 87%
- C=CC(C)(CCC=C(C)C)OC(C)=O (centres unmarked) [Linalyl acetate]: 18%
- O=C1CCCCCCCCCCCC(=O)OCCO1 [Ethylene Brassylate]: 100%

**Query** State the recorded amount of fragrance ingredient retained on blotter (percentage of the initial amount) for this entry: C=C(C)[C@H]1CC=C(C)CC1 [Limonene]
**Result** 1%

---

Experiment: Amount of fragrance ingredients retained on paper blotter after evaporation (ethanol extraction, GC-MS)
Type: physicochemical
Run Parameters: Table 5; fragrance TAK in C3; 60 min; 32°C
# key: entry, value: amount of fragrance ingredient retained on blotter (percentage of the initial amount)
Note: unit % is implicit; provide only the numeric part.

• O=C1CCCCCCCCCCCC(=O)OCCO1 [Ethylene Brassylate] = 93
• CCCCCCOC(C)=O [Hexyl acetate, Hexyl Acetate] = 5
• CC(=O)OC1CCCCC1C(C)(C)C (centres unmarked) [Verdox™, (2-tert-butylcyclohexyl) acetate] = 64

**Query** Consider the molecule C=CC(C)(CCC=C(C)C)OC(C)=O (centres unmarked) [Linalyl acetate] and give its measured amount of fragrance ingredient retained on blotter (percentage of the initial amount).
**Result** 62

---

Experiment: Amount of fragrance ingredients retained on paper blotter after evaporation (ethanol extraction, GC-MS)
Assay type: physicochemical
Run Parameters: Table 4; fragrance TAK in C2; 480 min; 32°C
Define the label as Satisfied when amount of fragrance ingredient retained on blotter (percentage of the initial amount) is strictly less than 9% and as Not satisfied in all remaining cases.

- CCCCCCOC(C)=O [Hexyl acetate, Hexyl Acetate]: Satisfied
- CC/C=C\CCOC(=O)c1ccccc1O [Cis 3-hexenyl salicylate, Cis-3-hexenyl salicylate]: Not satisfied

**Query** Item O=C1CCCCCCCCCCCC(=O)OCCO1 [Ethylene Brassylate] : amount of fragrance ingredient retained on blotter (percentage of the initial amount) beneath 9%, strictly?
**Result** Not satisfied

**Query** API: query returns whether the compound falls strictly under 9% in amount of fragrance ingredient retained on blotter (percentage of the initial amount). Query: CC(C=O)Cc1ccc(C(C)(C)C)cc1 (centres unmarked)
**Result** Not satisfied

**Query** In the record for C=CC(C)(O)CCC=C(C)C (centres unmarked) , is amount of fragrance ingredient retained on blotter (percentage of the initial amount) less than 9%?
**Result** Satisfied

**Query** Report whether reported amount of fragrance ingredient retained on blotter (percentage of the initial amount) is lower than 9% (strictly) for C=C(C)[C@H]1CC=C(C)CC1
**Result** Satisfied

**Query** Lab log: compare recorded amount of fragrance ingredient retained on blotter (percentage of the initial amount) with 9%; is it strictly lower for CC(=O)OC1CCCCC1C(C)(C)C (centres unmarked) [Verdox™, (2-tert-butylcyclohexyl) acetate] ?
**Result** Satisfied

---

Experiment: Amount of fragrance ingredients retained on paper blotter after evaporation (ethanol extraction, GC-MS)
Type: physicochemical
Run Parameters: Table 6; fragrance TAK in EdT1; 15 min; 32°C
Measured amount of fragrance ingredient retained on blotter (percentage of the initial amount) values are reported for all entries that follow.
Answer in %, number only, no unit symbol.

Recorded results for 7 molecules are shown here.
* CC(=O)OC1CCCCC1C(C)(C)C (centres unmarked) [Verdox™, (2-tert-butylcyclohexyl) acetate] | 70
* CC(C=O)Cc1ccc(C(C)(C)C)cc1 (centres unmarked) [Lilial™, 3-(4-tert-Butylphenyl)-2-methylpropanal] | 91
* C=CC(C)(CCC=C(C)C)OC(C)=O (centres unmarked) [Linalyl acetate] | 70
* O=C1CCCCCCCCCCCC(=O)OCCO1 [Ethylene Brassylate] | 88
* C=C(C)[C@H]1CC=C(C)CC1 [Limonene] | 1
* C=CC(C)(O)CCC=C(C)C (centres unmarked) [Linalool] | 57
* CC/C=C\CCOC(=O)c1ccccc1O [Cis 3-hexenyl salicylate, Cis-3-hexenyl salicylate] | 96

Let us examine a further case.
**Query** Requested read-out: amount of fragrance ingredient retained on blotter (percentage of the initial amount). Entry: CCCCCCOC(C)=O [Hexyl acetate, Hexyl Acetate]
**Result** 13

---

Experiment: Amount of fragrance ingredients retained on paper blotter after evaporation (ethanol extraction, GC-MS)
Format: physicochemical
Run Parameters: Table 5; fragrance TAK in C3; 15 min; 32°C
So basically: is amount of fragrance ingredient retained on blotter (percentage of the initial amount) under 80%? Then label 1. Not under? Then label 0.

Some solved entries appear below for comparison.
- C=CC(C)(O)CCC=C(C)C (centres unmarked): label 0
- C=CC(C)(CCC=C(C)C)OC(C)=O (centres unmarked) [Linalyl acetate]: label 0
- CC(=O)OC1CCCCC1C(C)(C)C (centres unmarked) [Verdox™, (2-tert-butylcyclohexyl) acetate]: label 0
- CC(C=O)Cc1ccc(C(C)(C)C)cc1 (centres unmarked): label 0

**Query** Is 80% strictly greater than the compound's reported amount of fragrance ingredient retained on blotter (percentage of the initial amount)? compound: C=C(C)[C@H]1CC=C(C)CC1
**Result** label 1

**Query** Quick check: does CCCCCCOC(C)=O [Hexyl acetate, Hexyl Acetate] have amount of fragrance ingredient retained on blotter (percentage of the initial amount) under 80%?
**Result** label 1

---

Experiment: Amount of fragrance ingredients retained on paper blotter after evaporation (ethanol extraction, GC-MS)
Type: physicochemical
Run Parameters: Table 6; fragrance TAK in EdT1; 480 min; 32°C
Method: A fragrance (hereafter fragrance TAK, the formulation of which is shown in table 1) was formulated in a typical Eau de Toilette (EdT1) or in fragrance compositions according to the invention (compositions C1 to C4), as shown in table 2. The amount of individual fragrance ingredients retained on paper substrate (blotter) after set time periods was assessed by the following method. […]
Endpoint Name: amount of fragrance ingredient retained on blotter (percentage of the initial amount) (%)
Numeric answer only, unit % assumed.

Example entries begin here.
* O=C1CCCCCCCCCCCC(=O)OCCO1 [Ethylene Brassylate] | 100
* CC(C=O)Cc1ccc(C(C)(C)C)cc1 (centres unmarked) [Lilial™, 3-(4-tert-Butylphenyl)-2-methylpropanal] | 23
* CC(=O)OC1CCCCC1C(C)(C)C (centres unmarked) [Verdox™, (2-tert-butylcyclohexyl) acetate] | 1

With those in mind, consider the next compound.
**Query** Give its amount of fragrance ingredient retained on blotter (percentage of the initial amount) value. Item: CC/C=C\CCOC(=O)c1ccccc1O [Cis 3-hexenyl salicylate, Cis-3-hexenyl salicylate]
**Result** 32

---

Reported amount of fragrance ingredient retained on blotter (percentage of the initial amount) by item:
Experiment: Amount of fragrance ingredients retained on paper blotter after evaporation (ethanol extraction, GC-MS)
Type: physicochemical
Run Parameters: Table 3; fragrance TAK in C1; 60 min; 32°C
# unit: % | format: bare number

Below, 7 compounds whose answers are already recorded.
- CCCCCCOC(C)=O [Hexyl acetate, Hexyl Acetate]: 5
- O=C1CCCCCCCCCCCC(=O)OCCO1 [Ethylene Brassylate]: 79
- C=CC(C)(CCC=C(C)C)OC(C)=O (centres unmarked) [Linalyl acetate]: 62
- CC(=O)OC1CCCCC1C(C)(C)C (centres unmarked) [Verdox™, (2-tert-butylcyclohexyl) acetate]: 62
- CC(C=O)Cc1ccc(C(C)(C)C)cc1 (centres unmarked) [Lilial™, 3-(4-tert-Butylphenyl)-2-methylpropanal]: 79
- C=CC(C)(O)CCC=C(C)C (centres unmarked) [Linalool]: 61
- CC/C=C\CCOC(=O)c1ccccc1O [Cis 3-hexenyl salicylate, Cis-3-hexenyl salicylate]: 77

**Query** Query: amount of fragrance ingredient retained on blotter (percentage of the initial amount); subject: C=C(C)[C@H]1CC=C(C)CC1 [Limonene]
**Result** 1

---

Experiment: Amount of fragrance ingredients retained on paper blotter after evaporation (ethanol extraction, GC-MS)
Type: physicochemical
Run Parameters: Table 3; fragrance TAK in EdT1; 120 min; 32°C
Endpoint Name: amount of fragrance ingredient retained on blotter (percentage of the initial amount)

* C=C(C)[C@H]1CC=C(C)CC1 | <1%

**Query** Value lookup for amount of fragrance ingredient retained on blotter (percentage of the initial amount); key = CC(=O)OC1CCCCC1C(C)(C)C (centres unmarked) [Verdox™, (2-tert-butylcyclohexyl) acetate]
**Result** 2%

**Query** Which amount of fragrance ingredient retained on blotter (percentage of the initial amount) value belongs to C=CC(C)(O)CCC=C(C)C (centres unmarked) ?
**Result** 1%

**Query** Which amount of fragrance ingredient retained on blotter (percentage of the initial amount) is reported for this compound? CCCCCCOC(C)=O [Hexyl acetate, Hexyl Acetate]
**Result** 2%

**Query** Can you look up the measured amount of fragrance ingredient retained on blotter (percentage of the initial amount) of CC(C=O)Cc1ccc(C(C)(C)C)cc1 (centres unmarked) for me?
**Result** 75%

**Query** Item CC/C=C\CCOC(=O)c1ccccc1O [Cis 3-hexenyl salicylate, Cis-3-hexenyl salicylate] has what recorded amount of fragrance ingredient retained on blotter (percentage of the initial amount)?
**Result** 85%

**Query** Reported amount of fragrance ingredient retained on blotter (percentage of the initial amount), compound O=C1CCCCCCCCCCCC(=O)OCCO1 [Ethylene Brassylate] : ____
**Result** 90%

**Query** Give its amount of fragrance ingredient retained on blotter (percentage of the initial amount) value. Item: C=CC(C)(CCC=C(C)C)OC(C)=O (centres unmarked) [Linalyl acetate]
**Result** 6%
